Target: T1, human mpl receptor (human, UniProt P40238 26-635)
T1 sequence (looked up): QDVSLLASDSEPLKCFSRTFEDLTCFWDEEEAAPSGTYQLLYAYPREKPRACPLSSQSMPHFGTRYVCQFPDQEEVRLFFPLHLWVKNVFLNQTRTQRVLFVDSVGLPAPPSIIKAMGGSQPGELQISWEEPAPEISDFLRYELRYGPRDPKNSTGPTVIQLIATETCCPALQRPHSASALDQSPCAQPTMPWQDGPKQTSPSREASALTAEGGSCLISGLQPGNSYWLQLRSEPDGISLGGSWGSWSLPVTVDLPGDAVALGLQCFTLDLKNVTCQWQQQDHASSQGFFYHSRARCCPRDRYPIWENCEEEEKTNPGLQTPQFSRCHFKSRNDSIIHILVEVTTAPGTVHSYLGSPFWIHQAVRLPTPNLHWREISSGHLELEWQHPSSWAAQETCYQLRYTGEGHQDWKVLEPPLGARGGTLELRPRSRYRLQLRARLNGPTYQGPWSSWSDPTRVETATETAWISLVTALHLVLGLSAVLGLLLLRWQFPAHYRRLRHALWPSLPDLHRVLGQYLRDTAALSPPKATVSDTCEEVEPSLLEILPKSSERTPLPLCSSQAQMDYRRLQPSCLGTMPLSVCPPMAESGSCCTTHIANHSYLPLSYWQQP
Test: cell-based or functional assay
MEASUREMENT_TYPE: EC50 on 32Dc123/Mpl
Reply with the number, then its unit.

[
  {
    "BINDER": "Fc-Loop (Asym) (SEQ ID NO: 9) (Fc fusion) MDKTHTCPPCPAPELLGGPSVFLFPPKPKDTLMISRTPEVTCVVVDVSHEDPEVKFNWYVDGVEVHNAKTKPREEQYNSTYRVVSVLTVLHQDWLNGKEYKCKVSNKALPAPIEKTISKAKGQPREPQVYTLPPSRDELGGGGQGCSSGGPTLREWQQCRRMQHSGGTKNQVSLTCLVKGFYPSDIAVEWESNGQPENNYKTTPPVLDSDGSFFLYSKLTVDKSRWQQGNVFSCSVMHEALHNHYTQKSLSLSPGK",
    "MEASUREMENT_TYPE": "EC50 on 32Dc123/Mpl",
    "ASSAY_RESULT": "0.013 nM"
  },
  {
    "BINDER": "Fc-Loop (Asym) (SEQ ID NO: 243) (Fc fusion) MDKTHTCPPCPAPELLGGPSVFLFPPKPKDTLMISRTPEVTCVVVDVSHEDPEVKFNWYVDGVEVHNAKTKPREEQYNSTYRVVSVLTVLHQDWLNGKEYKCKVSNKALPAPIEKTISKAKGQPREPQVYTLPPSRDELGGGGQGCSSGGPTLREWQQCVRMQHSGGTKNQVSLTCLVKGFYPSDIAVEWESNGQPENNYKTTPPVLDSDGSFFLYSKLTVDKSRWQQGNVFSCSVMHEALHNHYTQKSLSLSPGK",
    "MEASUREMENT_TYPE": "EC50 on 32Dc123/Mpl",
    "ASSAY_RESULT": "0.006 nM"
  },
  {
    "BINDER": "Fc-Loop (Sym) (SEQ ID NO: 243) (Fc fusion) MDKTHTCPPCPAPELLGGPSVFLFPPKPKDTLMISRTPEVTCVVVDVSHEDPEVKFNWYVDGVEVHNAKTKPREEQYNSTYRVVSVLTVLHQDWLNGKEYKCKVSNKALPAPIEKTISKAKGQPREPQVYTLPPSRDELGGQGCSSGGPTLREWQQCVRMQHSGGTKNQVSLTCLVKGFYPSDIAVEWESNGQPENNYKTTPPVLDSDGSFFLYSKLTVDKSRWQQGNVFSCSVMHEALHNHYTQKSLSLSPGK",
    "MEASUREMENT_TYPE": "EC50 on 32Dc123/Mpl",
    "ASSAY_RESULT": "0.01 nM"
  },
  {
    "BINDER": "Fc-Loop (Sym) (SEQ ID NO: 9) (Fc fusion) MDKTHTCPPCPAPELLGGPSVFLFPPKPKDTLMISRTPEVTCVVVDVSHEDPEVKFNWYVDGVEVHNAKTKPREEQYNSTYRVVSVLTVLHQDWLNGKEYKCKVSNKALPAPIEKTISKAKGQPREPQVYTLPPSRDELGGQGCSSGGPTLREWQQCRRMQHSGGTKNQVSLTCLVKGFYPSDIAVEWESNGQPENNYKTTPPVLDSDGSFFLYSKLTVDKSRWQQGNVFSCSVMHEALHNHYTQKSLSLSPGK",
    "MEASUREMENT_TYPE": "EC50 on 32Dc123/Mpl",
    "ASSAY_RESULT": "0.015 nM"
  }
]

[Q] Name the recorded EC50 on 32Dc123/Mpl of the binder listed here: Fc-Loop (Sym)(SEQ ID NO: 244) (Fc fusion) MDKTHTCPPCPAPELLGGPSVFLFPPKPKDTLMISRTPEVTCVVVDVSHEDPEVKFNWYVDGVEVHNAKTKPREEQYNSTYRVVSVLTVLHQDWLNGKEYKCKVSNKALPAPIEKTISKAKGQPREPQVYTLPPSRDELGGQGCSSGGPTLREWQQCRRAQHSGGTKNQVSLTCLVKGFYPSDIAVEWESNGQPENNYKTTPPVLDSDGSFFLYSKLTVDKSRWQQGNVFSCSVMHEALHNHYTQKSLSLSPGK
[A] 0.012 nM
